The measurements presented in this section are drawn from patent US20110250135A1.

- assay-summary: Biodistribution: organ distribution of F-18 signal in mice
- Assay type: in vivo, male NMRI mice
- condition-parameters: tail, 2 min post i.v. injection
The threshold is 9 % ID/g. Values of Organ distribution of F-18 signal, tail beneath it are tagged 1; values meeting or exceeding it are tagged 0.

Previously resolved entries follow.
1) O=C(NCC(=O)N1CCN(c2ccc(OCc3ccccc3)cc2)CC1)c1ccc([18F])nc1 [Example 10e] :: 1
2) O=C(NCC(=O)N1CCN(c2ccc(OCc3ccccc3)cc2)CC1)c1ccnc([18F])c1 [Example 11c] :: 1
3) O=C(NCC(=O)N1CCN(c2ccc(OCc3ccccc3)cn2)CC1)c1ccnc([18F])c1 [Example 14f] :: 1

API: the following record is the query input.
[ask] Hello, I'm reviewing records and need to know if Organ distribution of F-18 signal, tail of O=C(NCC(=O)N1CCN(c2ccc(OCc3ccccc3)cc2)CC1)c1cccnc1[18F] [Example 12c] is below 9 % ID/g. Could you check?
[reply] 0

---

- assay-summary: Biodistribution: organ distribution of F-18 signal in mice
- Assay type: in vivo, male NMRI mice
- condition-parameters: spleen, 30 min post i.v. injection
metric: Organ distribution of F-18 signal, spleen (% ID/g)
Numbers only; they are read as % ID/g.

1) O=C(NCC(=O)N1CCN(c2ccc(OCc3ccccc3)cc2)CC1)c1ccnc([18F])c1 [Example 11c] :: 0.93
2) O=C(NCC(=O)N1CCN(c2ccc(OCc3ccccc3)cc2)CC1)c1ccc([18F])nc1 [Example 10e] :: 1.08
3) O=C(NCC(=O)N1CCN(c2ccc(OCc3ccccc3)cc2)CC1)c1cccc(OCC[18F])c1 [Example 3g] :: 1.28
4) O=C(NCC(=O)N1CCN(c2ccc(OCc3ccccc3)cn2)CC1)c1ccnc([18F])c1 [Example 14f] :: 0.78

Next compound, please.
[ask] Name the recorded Organ distribution of F-18 signal, spleen of the item O=C(NCC(=O)N1CCN(c2ccc(OCc3ccccc3)cc2)CC1)c1cccnc1[18F] [Example 12c] in your answer.
[reply] 0.87

---

- assay-summary: Biodistribution: organ distribution of F-18 signal in mice
- Type: in vivo, male NMRI mice
- condition-parameters: liver, 60 min post i.v. injection
metric: Organ distribution of F-18 signal, liver (% ID/g)
Respond numerically; units are % ID/g and should not be typed.

1. O=C(NCC(=O)N1CCN(c2ccc(OCc3ccccc3)cc2)CC1)c1ccnc([18F])c1 [Example 11c] :: 4.72
2. O=C(NCC(=O)N1CCN(c2ccc(OCc3ccccc3)cn2)CC1)c1ccnc([18F])c1 [Example 14f] :: 1.87
3. O=C(NCC(=O)N1CCN(c2ccc(OCc3ccccc3)cc2)CC1)c1cccc(OCC[18F])c1 [Example 3g] :: 5.04
4. O=C(NCC(=O)N1CCN(c2ccc(OCc3ccccc3)cc2)CC1)c1cccnc1[18F] [Example 12c] :: 6.01

Pending compound:
[ask] Look up and state reported Organ distribution of F-18 signal, liver for O=C(NCC(=O)N1CCN(c2ccc(OCc3ccccc3)cc2)CC1)c1ccc([18F])nc1 [Example 10e]
[reply] 5.27

---

- assay-summary: Biodistribution: organ distribution of F-18 signal in mice
- Assay type: in vivo, male NMRI mice
- condition-parameters: brain, 240 min post i.v. injection
Field: label. Allowed values: condition met (Organ distribution of F-18 signal, brain < 0.04 % ID/g) or condition not met (Organ distribution of F-18 signal, brain >= 0.04 % ID/g).

As a guide, the following entries are already answered.
1) O=C(NCC(=O)N1CCN(c2ccc(OCc3ccccc3)cc2)CC1)c1ccnc([18F])c1 [Example 11c] :: condition not met
2) O=C(NCC(=O)N1CCN(c2ccc(OCc3ccccc3)cc2)CC1)c1cccnc1[18F] [Example 12c] :: condition not met
3) O=C(NCC(=O)N1CCN(c2ccc(OCc3ccccc3)cc2)CC1)c1cccc(OCC[18F])c1 :: condition not met

Moving on to the next compound.
[ask] Is it true that Organ distribution of F-18 signal, brain reported for O=C(NCC(=O)N1CCN(c2ccc(OCc3ccccc3)cn2)CC1)c1ccnc([18F])c1 [Example 14f] is less than 0.04 % ID/g?
[reply] condition met
